Molecular target: 5-hydroxytryptamine receptor 6 (Homo sapiens, UniProt P50406)
Sequence (P50406 whole entry): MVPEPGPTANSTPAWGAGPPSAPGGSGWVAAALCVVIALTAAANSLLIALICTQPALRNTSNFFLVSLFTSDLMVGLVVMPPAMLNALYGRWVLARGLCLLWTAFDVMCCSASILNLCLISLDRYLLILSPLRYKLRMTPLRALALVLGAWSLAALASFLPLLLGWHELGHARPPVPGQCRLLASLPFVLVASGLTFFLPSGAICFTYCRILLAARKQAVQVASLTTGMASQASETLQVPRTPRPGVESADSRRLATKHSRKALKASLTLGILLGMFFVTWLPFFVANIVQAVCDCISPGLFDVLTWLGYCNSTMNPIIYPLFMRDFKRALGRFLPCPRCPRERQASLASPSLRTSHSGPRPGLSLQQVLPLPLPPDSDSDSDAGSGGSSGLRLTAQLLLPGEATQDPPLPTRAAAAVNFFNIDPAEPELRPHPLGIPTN
Test: Binding affinity against human cloned 5-hydroxytryptamine 6 receptor in HeLa cells using [3H]LSD
observation type: Ki (nM)

Completed entries (count: 4):
COc1ccc(NS(=O)(=O)c2c(F)c(Br)cc(F)c2Br)cc1N1CCN(C)CC1 3.16
CNc1cc(NS(=O)(=O)c2ccc(N)cc2)cc(NC)n1 12.6
COc1ccc(NS(=O)(=O)c2cccc(C#N)c2)cc1N1CCN(C)CC1 63.1
COc1ccc(NS(=O)(=O)c2cn(C)cn2)cc1N1CCN(C)CC1 794

1. COc1ccc(NS(=O)(=O)c2ccccc2)cc1N1CCN(C)CC1
2. COc1ccc(NS(=O)(=O)c2cccc(I)c2)cc1N1CCN(C)CC1
Exercise: Which value of Ki is numerically greater: that of 1 or that of 2 ? Response format: the label of the selected entry.
Key: 1
(1: 10 nM, 2: 0.794 nM)
